# Target Of Assay: CYP2D6 (Homo sapiens, UniProt P10635)
# Sequence (P10635 whole entry): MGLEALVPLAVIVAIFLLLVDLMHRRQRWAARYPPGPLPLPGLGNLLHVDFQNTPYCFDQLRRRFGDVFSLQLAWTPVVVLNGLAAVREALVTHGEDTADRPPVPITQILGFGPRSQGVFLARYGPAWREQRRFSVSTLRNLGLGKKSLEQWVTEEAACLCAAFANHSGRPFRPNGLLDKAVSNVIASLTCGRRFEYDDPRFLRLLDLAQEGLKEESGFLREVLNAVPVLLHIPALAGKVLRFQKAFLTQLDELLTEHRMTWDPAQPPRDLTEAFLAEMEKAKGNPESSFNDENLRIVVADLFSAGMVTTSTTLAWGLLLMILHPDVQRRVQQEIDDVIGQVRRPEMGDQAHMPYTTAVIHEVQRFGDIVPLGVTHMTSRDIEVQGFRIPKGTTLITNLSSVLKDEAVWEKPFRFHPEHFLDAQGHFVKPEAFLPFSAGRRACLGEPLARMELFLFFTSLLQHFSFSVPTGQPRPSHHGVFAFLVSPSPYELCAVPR
pIC50: −log10 of the molar value.
Quantity Measured: pIC50

Tell me pIC50 reported for C[C@@H]1CCO[C@H]2Cn3cc(C(=O)NCc4ccc(F)cc4F)c(=O)c(O)c3C(=O)N12 [Dolutegravir, dolutegravir]
< 4.30

###

# Target Of Assay: organic anion transporter polypeptide (OATP)1B1 (Homo sapiens)
# Sequence (Q9Y6L6 whole entry): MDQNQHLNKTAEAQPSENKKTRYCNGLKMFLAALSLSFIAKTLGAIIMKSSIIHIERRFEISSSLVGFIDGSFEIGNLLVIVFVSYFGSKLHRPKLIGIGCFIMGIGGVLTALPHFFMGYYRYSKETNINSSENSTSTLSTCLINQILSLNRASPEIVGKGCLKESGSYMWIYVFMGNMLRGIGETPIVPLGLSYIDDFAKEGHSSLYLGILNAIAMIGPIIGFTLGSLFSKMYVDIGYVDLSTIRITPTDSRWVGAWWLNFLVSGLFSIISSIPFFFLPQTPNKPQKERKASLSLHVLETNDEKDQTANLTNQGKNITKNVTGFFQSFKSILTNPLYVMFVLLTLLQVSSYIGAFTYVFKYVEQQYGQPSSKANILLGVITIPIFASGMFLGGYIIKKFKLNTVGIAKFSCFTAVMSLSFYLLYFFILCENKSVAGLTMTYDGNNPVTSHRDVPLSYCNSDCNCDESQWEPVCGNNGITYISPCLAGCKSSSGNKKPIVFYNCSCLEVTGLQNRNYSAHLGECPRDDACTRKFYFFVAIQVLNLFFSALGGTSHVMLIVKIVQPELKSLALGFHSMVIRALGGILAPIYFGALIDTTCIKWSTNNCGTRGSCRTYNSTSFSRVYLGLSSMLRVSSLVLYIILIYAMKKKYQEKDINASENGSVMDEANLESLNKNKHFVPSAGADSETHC
Quantity Measured: IC50

Give IC50 for the following compound: C[C@@H]1CCO[C@H]2Cn3cc(C(=O)NCc4ccc(F)cc4F)c(=O)c(O)c3C(=O)N12 [Dolutegravir, dolutegravir]
> 50 µM

###

# Target Of Assay: bile salt export pump (BSEP) (Homo sapiens)
# Sequence (O95342 whole entry): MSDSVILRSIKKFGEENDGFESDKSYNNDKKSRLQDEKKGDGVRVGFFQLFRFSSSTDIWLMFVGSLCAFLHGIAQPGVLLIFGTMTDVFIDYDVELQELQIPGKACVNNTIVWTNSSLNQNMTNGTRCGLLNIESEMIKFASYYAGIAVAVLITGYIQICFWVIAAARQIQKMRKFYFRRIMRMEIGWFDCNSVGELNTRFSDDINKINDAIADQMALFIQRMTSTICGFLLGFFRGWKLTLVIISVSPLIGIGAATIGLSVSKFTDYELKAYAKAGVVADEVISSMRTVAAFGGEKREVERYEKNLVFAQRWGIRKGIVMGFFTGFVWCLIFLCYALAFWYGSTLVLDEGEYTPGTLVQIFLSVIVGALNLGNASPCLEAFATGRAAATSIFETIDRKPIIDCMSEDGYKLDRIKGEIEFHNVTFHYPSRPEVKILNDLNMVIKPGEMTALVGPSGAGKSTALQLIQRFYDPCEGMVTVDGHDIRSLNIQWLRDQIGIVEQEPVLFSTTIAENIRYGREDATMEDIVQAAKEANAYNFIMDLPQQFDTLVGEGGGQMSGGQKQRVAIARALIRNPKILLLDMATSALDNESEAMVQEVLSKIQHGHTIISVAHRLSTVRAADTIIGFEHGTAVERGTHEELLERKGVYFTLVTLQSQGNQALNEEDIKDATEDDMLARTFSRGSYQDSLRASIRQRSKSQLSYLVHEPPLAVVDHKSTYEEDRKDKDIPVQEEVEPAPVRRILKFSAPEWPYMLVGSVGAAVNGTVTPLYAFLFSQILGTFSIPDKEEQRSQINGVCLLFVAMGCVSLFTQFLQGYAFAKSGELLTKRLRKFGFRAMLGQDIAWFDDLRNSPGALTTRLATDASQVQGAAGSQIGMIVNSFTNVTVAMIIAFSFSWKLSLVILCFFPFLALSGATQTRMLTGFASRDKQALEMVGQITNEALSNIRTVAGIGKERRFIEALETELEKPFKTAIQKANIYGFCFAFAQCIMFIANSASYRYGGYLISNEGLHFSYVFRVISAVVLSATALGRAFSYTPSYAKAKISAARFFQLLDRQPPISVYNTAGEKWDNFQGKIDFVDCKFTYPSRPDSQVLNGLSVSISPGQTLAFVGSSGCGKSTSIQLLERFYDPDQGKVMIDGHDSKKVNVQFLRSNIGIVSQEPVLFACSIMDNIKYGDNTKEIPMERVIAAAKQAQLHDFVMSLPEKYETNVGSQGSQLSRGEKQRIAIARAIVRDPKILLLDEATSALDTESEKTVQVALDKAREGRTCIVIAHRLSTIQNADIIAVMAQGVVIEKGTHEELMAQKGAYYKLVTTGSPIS
Quantity Measured: IC50

Output measured IC50 for this item: C[C@@H]1CCO[C@H]2Cn3cc(C(=O)NCc4ccc(F)cc4F)c(=O)c(O)c3C(=O)N12
> 50 µM
